measurement_protocol: PAMPA passive membrane permeability
protocol_conditions: 20 μM, pH 7.4, 5 hours
measured_parameter: R (percent recovery) (%)
# output: bare number, implied unit %

IN: Please report the recorded R (percent recovery) for COc1ccc(-c2cc(=O)c3c(OC)c([C@@H]4O[C@H](C(=O)N[C@@H](C)C(F)(F)F)[C@@H](O)[C@H](O)[C@H]4O)c(OC)cc3o2)cc1OC .
OUT: 30

IN: And the next one, COc1ccc(-c2cc(=O)c3c(OC)c([C@@H]4O[C@H](C(=O)NCc5ccccc5)[C@@H](O)[C@H](O)[C@H]4O)c(OC)cc3o2)cc1OC ?
OUT: 30

IN: Again, but for COc1ccc(-c2cc(=O)c3c(OC)c([C@@H]4O[C@H](C(=O)NC5CCCCC5)[C@@H](O)[C@H](O)[C@H]4O)c(OC)cc3o2)cc1OC
OUT: 20

IN: Same again, this time with COc1ccc(-c2cc(=O)c3c(OC)c([C@@H]4O[C@H](C(=O)NC(C)C)[C@@H](O)[C@H](O)[C@H]4O)c(OC)cc3o2)cc1OC
OUT: 46
